In this section, each of the compounds is paired with its reported inhibition.
target: Platelet-activating factor acetylhydrolase IB subunit alpha2 (Homo sapiens) (UniProt P68402); experiment: inhibition of human PAFAH1B2 catalytic subunit – biochemical, fluorescence polarization, FP-rhodamine probe, triplicate, confirmation (AID 493034); conditions: recombinant PAFAH1B2, FP-rhodamine probe fluorescence polarization; at 3.39 µM; hits give high values;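 note: 0% = enzyme with DMSO and 100% = wells lacking PAFAH1B2 protein; inhibitors lower polarization by leaving the probe unbound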
Sequence (P68402 whole entry, looked up): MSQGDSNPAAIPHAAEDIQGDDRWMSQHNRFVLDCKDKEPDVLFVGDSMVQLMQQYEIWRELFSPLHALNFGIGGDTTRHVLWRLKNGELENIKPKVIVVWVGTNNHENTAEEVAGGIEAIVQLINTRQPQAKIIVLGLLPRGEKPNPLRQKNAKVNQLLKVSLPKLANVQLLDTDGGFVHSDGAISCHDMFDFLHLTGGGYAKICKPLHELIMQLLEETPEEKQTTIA
The whole screen tested about 2,400 compounds, of which about 2,200 (92%) were called active. So high a share suggests a set chosen from earlier hits. The list shows a part of the results.
Write it as a number; the unit % goes unstated.

Item under review: `COc1cc(/C=N/NS(=O)(=O)c2ccc(C(C)(C)C)cc2)cc([N+](=O)[O-])c1O` . Reported inhibition?
14.5

Item under review: `Cc1ccc(S(=O)(=O)CCC(=O)NCCN2C(=O)S/C(=C/c3ccc(F)cc3)C2=O)cc1` . Reported inhibition?
21.1

Item under review: `Cc1ccc(-c2csc(N)n2)cc1` . Reported inhibition?
63.1
